# System: greenhouse red spider mite (Tetranychus urticae)
# assayNotes: Tetranychus test (OP-resistance/spray treatment) (Example E)
# Type: in vivo
# conditionNotes: 500 g/ha; sprayed bean leaf discs
The entries below come with measured Kill rate in % after 5d values attached.
measuredMetric: Kill rate in % after 5d (%)

>>> print(df.to_string())
                                    compound  datavalue
 0  Cc1ccc(-c2cccc(Cl)c2Cl)cc1C1(Cl)C(=O)N2CCCCN2C1=O [Ex. I-1-12]         90
 1  Cc1cccc(-c2ccc(C)c(C3(Cl)C(=O)N4CCOCCN4C3=O)c2)c1 [Ex. I-2-9]         90
 2  Cc1ccc(-c2ccc(Cl)cc2Cl)cc1C1(Cl)C(=O)N2CCCCN2C1=O [Ex. I-1-13]        100
 3  Cc1ccc(-c2ccccc2C(F)(F)F)cc1C1(Cl)C(=O)N2CCOCCN2C1=O [Ex. I-2-19]         90
 4  Cc1ccc(-c2ccccc2F)cc1C1(Cl)C(=O)N2CCOCCN2C1=O [Ex. I-2-5]         90
 5  Cc1ccc(-c2ccc(OC(F)(F)F)cc2)cc1C1(Cl)C(=O)N2CCCCN2C1=O [Ex. I-1-29]        100
 6  Cc1cccc(-c2ccc(C)c(C3(Cl)C(=O)N4CCCCN4C3=O)c2)c1 [Ex. I-1-10]        100
 7  Cc1ccc(-c2cc(Cl)ccc2Cl)cc1C1(Cl)C(=O)N2CCCCN2C1=O [Ex. I-1-14]        100
 8  Cc1ccc(-c2ccc(OC(F)(F)F)cc2)cc1C1(Cl)C(=O)N2CCOCCN2C1=O [Ex. I-2-28]         90
 9  Cc1ccc(-c2ccccc2)cc1C1(Cl)C(=O)N2CCCCN2C1=O [Ex. I-1-3]        100
10  Cc1ccc(-c2cccc(F)c2)cc1C1(Cl)C(=O)N2CCCCN2C1=O [Ex. I-1-8]        100

Ref: patent US7569517B2
